# reported Neutralization (Ave IC50 ug/ml); entries follow
Molecular target: HA of influenza B virus ca B/Beijing/243/97 (victoria) (influenza B virus B/Beijing/243/97)
Experiment: cell-based or functional assay
Readout Type: Neutralization (Ave IC50 ug/ml) (µg/mL)

* FBC-39 FTL (antibody, V domains shown) VH: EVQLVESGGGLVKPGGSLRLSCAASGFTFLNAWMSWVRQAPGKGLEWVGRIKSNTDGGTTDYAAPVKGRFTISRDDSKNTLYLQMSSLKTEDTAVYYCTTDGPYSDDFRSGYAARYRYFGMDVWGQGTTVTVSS VL: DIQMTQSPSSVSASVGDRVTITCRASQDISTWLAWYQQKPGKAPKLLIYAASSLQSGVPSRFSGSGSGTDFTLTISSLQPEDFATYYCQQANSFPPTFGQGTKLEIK | 0.134
* FBD-56 (antibody, V domains shown) VH: EVQLVESGGHLVQPGRSLRLSCAASGFTFEDYAMNWVRQAPGKGLEWVSVISWDSGRIGYADSVKGRFTISRDNAKNSSYLQMNSLRPEDTALYYCVRDMLAYYSDNSGKKYNVYGMDVWGQGTTVTVSS VL: EIVLTQSPATLSLSPGERATLSCRASQSVSTFLAWYQQKPGQAPRLLMYDASNRATGIPARFSGSGSGTDFTLTISSLEPEDFAIYYCQQRSHWPPIFGQGTRLEIK | 0.016
* FBC-39 FSL (antibody, V domains shown) VH: EVQLVESGGGLVKPGGSLRLSCAASGFSFLNAWMSWVRQAPGKGLEWVGRIKSNTDGGTTDYAAPVKGRFTISRDDSKNTLYLQMSSLKTEDTAVYYCTTDGPYSDDFRSGYAARYRYFGMDVWGQGTTVTVSS VL: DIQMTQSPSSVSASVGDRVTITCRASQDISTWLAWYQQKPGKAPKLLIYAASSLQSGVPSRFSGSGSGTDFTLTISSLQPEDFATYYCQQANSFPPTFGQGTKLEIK | 0.195
* FBC-39 LSL (antibody, V domains shown) VH: EVQLVESGGGLVKPGGSLRLSCAASGLSFLNAWMSWVRQAPGKGLEWVGRIKSNTDGGTTDYAAPVKGRFTISRDDSKNTLYLQMSSLKTEDTAVYYCTTDGPYSDDFRSGYAARYRYFGMDVWGQGTTVTVSS VL: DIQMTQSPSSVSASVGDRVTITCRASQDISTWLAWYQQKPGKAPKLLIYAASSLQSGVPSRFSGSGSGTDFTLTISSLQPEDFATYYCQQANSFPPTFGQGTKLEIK | 0.182
* FBD-94 (antibody, V domains shown) VH: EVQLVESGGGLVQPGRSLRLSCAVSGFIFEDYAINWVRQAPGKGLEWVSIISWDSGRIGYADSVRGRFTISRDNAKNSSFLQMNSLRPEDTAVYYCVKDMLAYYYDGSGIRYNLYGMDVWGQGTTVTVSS VL: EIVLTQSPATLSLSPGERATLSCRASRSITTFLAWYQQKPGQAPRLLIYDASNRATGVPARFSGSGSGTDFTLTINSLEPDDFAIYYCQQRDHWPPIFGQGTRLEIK | 0.005
* FBC-39 (antibody, V domains shown) VH: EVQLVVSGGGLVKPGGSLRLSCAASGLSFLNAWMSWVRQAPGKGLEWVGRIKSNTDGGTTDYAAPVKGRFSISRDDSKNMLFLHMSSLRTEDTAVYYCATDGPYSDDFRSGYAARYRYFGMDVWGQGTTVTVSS VL: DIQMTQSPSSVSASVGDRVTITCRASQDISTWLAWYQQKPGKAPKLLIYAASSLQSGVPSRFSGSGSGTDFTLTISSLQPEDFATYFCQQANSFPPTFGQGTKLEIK | 0.218
